Molecular target: T1, human IL-23 (IL-23-His-Biotin, Akesobio, 20161209) (human, UniProt Q9NPF7 20-189; P29460 23-328)
T1 construct: His-tagged and biotinylated; also called human IL23-His-Biotin
T1 sequence (looked up) 1: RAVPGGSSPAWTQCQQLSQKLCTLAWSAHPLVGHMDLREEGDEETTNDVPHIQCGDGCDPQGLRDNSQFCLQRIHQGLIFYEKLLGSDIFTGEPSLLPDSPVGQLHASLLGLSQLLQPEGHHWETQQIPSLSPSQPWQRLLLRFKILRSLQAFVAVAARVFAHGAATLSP
T1 sequence (looked up) 2: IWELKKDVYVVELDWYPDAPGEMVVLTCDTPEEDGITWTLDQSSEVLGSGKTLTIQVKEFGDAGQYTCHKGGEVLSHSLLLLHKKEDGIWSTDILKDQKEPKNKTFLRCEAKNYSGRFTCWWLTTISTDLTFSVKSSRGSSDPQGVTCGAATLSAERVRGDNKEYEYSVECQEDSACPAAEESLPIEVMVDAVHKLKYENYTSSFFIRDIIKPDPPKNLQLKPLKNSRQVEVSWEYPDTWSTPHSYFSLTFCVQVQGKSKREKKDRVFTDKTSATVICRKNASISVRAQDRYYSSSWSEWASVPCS
Test: FACS competition, IL-23-His-Biotin 2 µg/mL on 293T-IL-12RB1&IL-23R cells, antibody 30 µg/mL
parameterMeasured: MFI
Lab note: write the figure by itself, no unit.

Known results for binders:
binder | MFI
H5L9 (antibody, human IgG1, kappa, V domains shown, Humanized anti-human IL-12/IL-23 p40 antibody; IgG1 (P01857) / kappa (P01834) constant regions) VH: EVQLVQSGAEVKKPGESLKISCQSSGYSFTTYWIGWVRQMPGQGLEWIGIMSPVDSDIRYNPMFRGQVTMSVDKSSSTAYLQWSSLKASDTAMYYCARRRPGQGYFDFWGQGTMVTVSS VL: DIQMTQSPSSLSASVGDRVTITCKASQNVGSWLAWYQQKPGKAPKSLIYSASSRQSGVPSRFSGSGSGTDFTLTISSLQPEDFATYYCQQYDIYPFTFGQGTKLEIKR | 104
ustekinumab (trade name Stelara) (antibody, V domains shown) VH: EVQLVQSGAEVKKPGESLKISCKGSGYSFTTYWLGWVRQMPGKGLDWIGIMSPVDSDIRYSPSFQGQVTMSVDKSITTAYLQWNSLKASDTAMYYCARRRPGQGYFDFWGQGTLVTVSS VL: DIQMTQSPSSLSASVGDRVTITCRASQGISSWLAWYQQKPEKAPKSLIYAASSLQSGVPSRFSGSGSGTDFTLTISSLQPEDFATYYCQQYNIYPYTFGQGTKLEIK | 9.64

Note MFI for the binder shown: H5L10 (antibody, human IgG1, kappa, V domains shown, IgG1/kappa) VH: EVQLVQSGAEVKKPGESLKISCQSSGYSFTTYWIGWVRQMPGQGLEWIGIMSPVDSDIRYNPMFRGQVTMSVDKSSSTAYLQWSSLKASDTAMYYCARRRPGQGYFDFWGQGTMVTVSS VL: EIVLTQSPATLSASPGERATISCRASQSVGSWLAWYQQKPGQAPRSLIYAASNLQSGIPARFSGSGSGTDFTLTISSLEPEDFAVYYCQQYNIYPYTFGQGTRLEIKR
11.9
